Values were extracted from patent US10278942B2.

Target entity: HIF-2α HIS TAG-PASB Domain (Homo sapiens)
Construct: 100 nM HIF-2α HIS TAG-PASB Domain
Assay remarks: HIF-2α Scintillation Proximity Assay (SPA)
Type: binding
Condition parameters: read-out: Scintillation Proximity Assay IC50
pIC50: −log10 of the molar value.
Measure: pIC50

O=S(=O)(c1ccc(OCC2(F)COC2)c2c1[C@H](O)C(F)(F)C2)C(F)(F)F = > 7.30

Task item: Report pIC50 for O=S(=O)(c1ccc(Oc2ccc(F)c(Cl)c2)c2c1[C@H](O)CC2)C(F)F
Reply: 6.00 to 6.60

Task item: Hello, please tell me recorded pIC50 for this one: CS(=O)(=O)c1ccc(OC2CC(F)(F)C2)c2c1[C@H](O)C(F)(F)[C@H]2F
Reply: 6.00 to 6.60

Task item: Note pIC50 for the molecule shown: O=S(=O)(c1ccc(Oc2cc(F)cc(Cl)c2)c(Br)c1CO)C(F)(F)F
Reply: 6.60 to 7.30

Task item: Check the records and state pIC50 for COc1ccc(S(=O)(=O)C(F)(F)F)c2c1CCC2O (stereo not drawn)
Reply: < 6.00

Task item: Consider the molecule CC(Oc1ccc(S(=O)(=O)C(F)(F)F)c2c1CC(F)(F)[C@H]2O)C1(C#N)CC1 (stereo partly drawn) . State its measured pIC50.
Reply: 6.00 to 6.60

Task item: Tell me pIC50 reported for O=S(=O)(c1ccc(Oc2cc(F)cc(Cl)c2)c(Br)c1CNCCO)C(F)(F)F
Reply: < 6.00

Task item: Provide only the value of recorded pIC50 for CS(=O)(=O)c1ccc(Oc2cncc(Br)c2)c2c1C(=O)C(F)(F)C2
Reply: < 6.00

Task item: // fetch pIC50 given entry N#Cc1cncc(Oc2ccc(S(=O)(=O)C(F)(F)F)c3c2C[C@@H](F)[C@H]3O)c1
Reply: > 7.30

Task item: Indicate its recorded pIC50; the molecule in question is CS(=O)(=O)c1ccc(Oc2cc(F)cc(C#N)c2)c2c1[C@H](N)C(F)(F)[C@@H]2F
Reply: 6.00 to 6.60

Task item: Annotate the molecule O=S(=O)(c1ccc(OCCCF)c2c1[C@H](O)C(F)(F)C2)C(F)(F)F with its measured pIC50.
Reply: > 7.30

Task item: Consider the molecule CC(C)(C)OC(=O)N[C@H]1C[C@@H](O)c2c(S(=O)(=O)C(F)(F)F)ccc(Oc3cc(F)cc(C#N)c3)c21 and give its recorded pIC50.
Reply: < 6.00

Task item: Please report the measured pIC50 for N#Cc1cc(F)cc(Oc2ccc3c(c2C#CCF)C(O)C(F)(F)S3(=O)=O)c1 (stereo not drawn)
Reply: < 6.00

Task item: Indicate the recorded pIC50 value for this molecule: N#Cc1cc(F)cc(Oc2ccc(S(=O)(=O)C(F)(F)F)c(Cl)c2C#N)c1
Reply: > 7.30

Task item: Give me measured pIC50, please, for this molecule: Cc1c(Oc2cc(F)cc(Cl)c2)ccc(S(=O)(=O)C(F)(F)F)c1Cl
Reply: > 7.30

* * *

Target entity: HIF-2α HIS TAG-PASB Domain (Homo sapiens)
Construct: 100 nM HIF-2α HIS TAG-PASB Domain
Assay remarks: HIF-2α Scintillation Proximity Assay (SPA)
Type: binding
Condition parameters: read-out: Scintillation Proximity Assay IC50
pIC50: −log10 of the molar value.
Entries and their pIC50 values follow.

Here is how some compounds turned out for pIC50.
OC1c2c(C(F)F)ccc(OCC(F)F)c2CC1(F)F (stereo not shown) = 6.60 to 7.30
CS(=O)(=NC#N)c1ccc(Oc2cc(F)cc(C#N)c2)c2c1[C@H](O)[C@H](F)C2 (stereo partly shown) = 6.60 to 7.30
O=S(=O)(CF)c1ccc(OC2CC(F)(F)C2)c2c1[C@H](O)[C@H](F)[C@@H]2F = > 7.30

Consider the additional compound presented here.
Task item: Given Cc1c(S(C)(=O)=O)ccc(Oc2cc(F)cc(F)c2)c1C#N , respond with its pIC50.
Reply: > 7.30

* * *

Target entity: HIF-2α HIS TAG-PASB Domain (Homo sapiens, UniProt Q99814)
Construct: 100 nM HIF-2α HIS TAG-PASB Domain
Sequence (Q99814 240-350 limits assumed): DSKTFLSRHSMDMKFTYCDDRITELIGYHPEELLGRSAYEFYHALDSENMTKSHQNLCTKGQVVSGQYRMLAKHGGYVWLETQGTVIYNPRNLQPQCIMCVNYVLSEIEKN
Assay remarks: HIF-2α Scintillation Proximity Assay (SPA)
Assay type: binding
Condition parameters: read-out: Scintillation Proximity Assay IC50
Protocol: The total assay volume was about 100 μL in the following configuration: 2 μL compound in 100% DMSO, 88 μL buffer with protein and probe and 10 μL of SPA beads. […] The percent inhibition was determined and IC50 values were calculated using the Dotmatics system based on the following equation: % inhibition=[(high control−sample)/(high control−low control)]×100.
pIC50: −log10 of the molar value.
Measure: pIC50

Before answering, review these 8 worked examples.
O=S(=O)(c1ccc(OC2CCC(O)CC2)c2c1C(O)C(F)(F)C2)C(F)(F)F (stereo not drawn) = < 6.00
N#Cc1cc(Oc2ccc(S(=O)(=O)C(F)(F)F)c3c2CC(F)(F)[C@H]3O)ccc1F = > 7.30
CN(C)CCOc1ccc(S(=O)(=O)C(F)(F)F)c2c1CC(F)(F)C2O (stereo not drawn) = < 6.00
C=CC1(O)c2c(ccc(Oc3cc(F)cc(C#N)c3)c2C#N)S(=O)(=O)C1(F)F (stereo not drawn) = < 6.00
N#Cc1ccc(F)c2c1CC(F)(F)C2O (stereo not drawn) = < 6.00
COC(=O)C(C)Oc1ccc(S(=O)(=O)C(F)(F)F)c2c1CC(F)(F)C2O (stereo not drawn) = 6.00 to 6.60
N#Cc1c(S(=O)(=O)C(F)F)ccc(Oc2cc(F)cc(Cl)c2)c1Br = 6.00 to 6.60
NCC1(O)CCc2c(OCC(F)F)ccc(C(F)(F)F)c21 (stereo not drawn) = < 6.00

Moving on to the next compound.
Task item: Provide measured pIC50 value, entry: N#Cc1cc(Oc2ccc(S(=O)(=O)C(F)(F)F)c3c2CCC3O)ccc1F (stereo not drawn)
Reply: < 6.00

* * *

Target entity: HIF-2α HIS TAG-PASB Domain (Homo sapiens, UniProt Q99814)
Construct: 100 nM HIF-2α HIS TAG-PASB Domain
Assay remarks: HIF-2α Scintillation Proximity Assay (SPA)
Format: binding
Condition parameters: read-out: Scintillation Proximity Assay IC50
pIC50: −log10 of the molar value.
pIC50 for assorted molecules

Task item: Quick one: give measured pIC50 for Cc1c(S(C)(=O)=O)ccc(Oc2cc(F)cc(Cl)c2)c1C(F)F
Reply: 6.00 to 6.60

Task item: Read off the recorded pIC50 for CS(=O)(=O)c1ccc(OC2CC(F)(F)C2)c2c1[C@H](O)C(F)(F)[C@@H]2F
Reply: > 7.30

Task item: Return pIC50 (reported value) for this molecule: O=S(=O)(c1ccc(-c2cccc(Cl)c2)c2c1[C@H](O)C(F)(F)C2)C(F)(F)F
Reply: > 7.30

Task item: State its pIC50: COCCCOc1ccc(S(=O)(=O)C(F)(F)F)c2c1CC(F)(F)C2O (centres unmarked)
Reply: > 7.30

Task item: Recall and state the measured pIC50 for N#Cc1cnn(Cc2ccc(S(=O)(=O)C(F)(F)F)c3c2CC(F)(F)[C@H]3O)c1 .
Reply: < 6.00

Task item: Give recorded pIC50. CS(=O)(=O)c1ccc(N2CCC[C@@H](O)C2)c2c1[C@H](O)C(F)(F)[C@@H]2F
Reply: < 6.00

Task item: For O=S(=O)(c1ccc(OC2CCOCC2)c2c1[C@H](O)C(F)(F)C2)C(F)(F)F , write its pIC50.
Reply: > 7.30

* * *

pIC50 reference
Target entity: HIF-2α HIS TAG-PASB Domain (Homo sapiens, UniProt Q99814)
Construct: 100 nM HIF-2α HIS TAG-PASB Domain
Assay remarks: HIF-2α Scintillation Proximity Assay (SPA)
Assay type: binding
Condition parameters: read-out: Scintillation Proximity Assay IC50
pIC50: −log10 of the molar value.

O=S(=O)(c1ccc(Oc2cncc(Cl)c2)c2c1[C@H](O)CC2)C(F)F = 6.00 to 6.60
N#Cc1cc(F)cc(Oc2ccc3c(c2Cl)[C@@H](O)C(F)(F)S3(=O)=O)c1 = > 7.30
N#CC1(COc2ccc(S(=O)(=O)C(F)(F)F)c3c2CC(F)(F)C3O)CC1 (stereo not drawn) = 6.60 to 7.30
CC(Oc1ccc(S(=O)(=O)C(F)(F)F)c2c1CC(F)(F)C2O)c1ccccc1 (stereo not drawn) = < 6.00
O=S(=O)(CF)c1ccc(Oc2cc(F)cc(Cl)c2)c2c1[C@H](O)C(F)(F)C2 = > 7.30
NC1CCc2c(Oc3cc(F)cc(F)c3)ccc(S(=O)(=O)C(F)F)c21 (stereo not drawn) = < 6.00

We next turn to a different molecule, shown below.
Task item: Supply pIC50 value. Item: CC1(C)CC(c2ccc(S(=O)(=O)C(F)(F)F)c3c2CC(F)(F)[C@H]3O)=CC(O)C1 (stereo partly drawn)
Reply: 6.60 to 7.30
